System: antibodies in sera from SARS patients (sera 1a, 1b, 2, 6, 37, 62, London, SARS-yellow, SARS-green)
Assay type: binding, human
Set-up: unit not given here
measured-property: Binding of serum 6 to linear peptides of protein X1 of SARS-CoV Urbani

Record excerpt, results attached:
DYVVVHGYFTEVYYQ 0.4
PPNVQIHTIDGSSGV 0.4
LNKRWQLALYKGFQF 0.8
NPLLYDANYFVCWHT 0.5

Entry EGDGISTPKLKEDYQ has what Binding of serum 6 to linear peptides of protein X1 of SARS-CoV Urbani?
0.3

====

Tested on: antibodies in sera from SARS patients (sera 1a, 1b, 2, 6, 37, 62, London, SARS-yellow, SARS-green)
Format: binding, human
Recorded Binding of serum SARS-yellow to linear peptides of protein N of SARS-CoV Urbani, one value per entry.
// keep it numeric: no unit symbol after the value

Known Binding of serum SARS-yellow to linear peptides of protein N of SARS-CoV Urbani results, listed for orientation:
YHGAIKLDDKDPQFK 0.7
RQGTDYKHWPQIAQF 0.6
PAADMDDFSRQLQNS 0.5

Now consider the entry below.
Would you kindly share the measured Binding of serum SARS-yellow to linear peptides of protein N of SARS-CoV Urbani for DQIGYYRRATRRVRG ?
0.6

====

Tested on: antibodies in sera from SARS patients (sera 1a, 1b, 2, 6, 37, 62, London, SARS-yellow, SARS-green)
Type: binding, human
measured-property: Binding of serum 1a to linear peptides of protein X2

ALQELLIQQWIQFMM 0.7

Tell me the measured Binding of serum 1a to linear peptides of protein X2 of MTTVYHITVSQIQLS , please.
0.7

What value of Binding of serum 1a to linear peptides of protein X2 has been reported for the following sequence? QIQLSLLKVTAFQHQ
0.5

====

Tested on: control sera (pooled serum of ten healthy LUMC hospital workers; commercial negative donor pooled serum from the Dutch bloodbank)
Type: binding, human
Set-up: unit not given here
measured-property: Binding of Control serum LUMC to linear peptides
Number, no unit, nothing else.

Worked examples follow.
LADNKFALTCTSTHF 0.7
GTQVLKTMSLYMAIS 0.6
EGALNTPKDHIGTRN 0.6

What measured Binding of Control serum LUMC to linear peptides goes with GKEELRFPRGQGVPI ?
0.8

Return reported Binding of Control serum LUMC to linear peptides; argument: PLQASLPFGWLVIGV
0.9

Requested read-out: Binding of Control serum LUMC to linear peptides. Entry: HLLLVAAGMEAQFLY
0.7

So what's the measured Binding of Control serum LUMC to linear peptides for this one? TTVLLKEPCPSGTYE
0.9

Binding of Control serum LUMC to linear peptides for KFTTSLSLHKLLQTL ?
0.4

Endpoint output: Binding of Control serum LUMC to linear peptides of TNSGPDDQIGYYRRA . Value?
0.9

====

Test system: antibodies in sera from SARS patients (sera 1a, 1b, 2, 6, 37, 62, London, SARS-yellow, SARS-green)
Format: binding, human
// NB: equality with 0.7 counts as 0.0; only Binding of serum 62 to linear peptides of protein N of SARS-CoV Urbani strictly below is 1.0

Before answering, review these 5 worked examples.
TPSGTWLTYHGAIKL 1.0
WVATEGALNTPKDHI 0.0
GAIKLDDKDPQFKDN 0.0
SPRWYFYYLGTGPEA 0.0
NTNSGPDDQIGYYRR 1.0

is_below(Binding of serum 62 to linear peptides of protein N of SARS-CoV Urbani, 0.7) for TPKDHIGTRNPNNNA ?
0.0

Dear reviewer, please state whether NGPQSNQRSAPRITF has Binding of serum 62 to linear peptides of protein N of SARS-CoV Urbani strictly beneath 0.7.
1.0

Given KQRRPQGLPNNTASW , is recorded Binding of serum 62 to linear peptides of protein N of SARS-CoV Urbani strictly lower than 0.7?
1.0

Say whether its Binding of serum 62 to linear peptides of protein N of SARS-CoV Urbani is strictly beneath 0.7. Entry: SRIGMEVTPSGTWLT
1.0

Is Binding of serum 62 to linear peptides of protein N of SARS-CoV Urbani strictly under 0.7 for the entry GMEVTPSGTWLTYHG ?
1.0

Problem: For the sequence RWYFYYLGTGPEASL , is Binding of serum 62 to linear peptides of protein N of SARS-CoV Urbani under 0.7?
0.0

Criterion: Binding of serum 62 to linear peptides of protein N of SARS-CoV Urbani strictly below 0.7. Is it met by TFGGPTDSTDNNQNG ?
1.0

Hello, is Binding of serum 62 to linear peptides of protein N of SARS-CoV Urbani of the following sequence strictly smaller than 0.7? MKELSPRWYFYYLGT
1.0

State whether 0.7 exceeds Binding of serum 62 to linear peptides of protein N of SARS-CoV Urbani recorded for RQKKQPTVTLLPAAD .
0.0

Consider ADMDDFSRQLQNSMS . Does its Binding of serum 62 to linear peptides of protein N of SARS-CoV Urbani lie strictly below 0.7?
1.0

Would you kindly verify if Binding of serum 62 to linear peptides of protein N of SARS-CoV Urbani of NNTASWFTALTQHGK is strictly less than 0.7?
1.0

Quick check: Binding of serum 62 to linear peptides of protein N of SARS-CoV Urbani of VTLLPAADMDDFSRQ under 0.7?
1.0

Item IGTRNPNNNAATVLQ : Binding of serum 62 to linear peptides of protein N of SARS-CoV Urbani beneath 0.7, strictly?
0.0

is_below(Binding of serum 62 to linear peptides of protein N of SARS-CoV Urbani, 0.7) for ASLPYGANKEGIVWV ?
1.0

Decide: Binding of serum 62 to linear peptides of protein N of SARS-CoV Urbani of RQGTDYKHWPQIAQF strictly below 0.7?
0.0

Decide: Binding of serum 62 to linear peptides of protein N of SARS-CoV Urbani of QPLPQRQKKQPTVTL strictly below 0.7?
1.0

Below 0.7 on Binding of serum 62 to linear peptides of protein N of SARS-CoV Urbani? Entry GPEASLPYGANKEGI
0.0

Dear colleague, could you confirm whether Binding of serum 62 to linear peptides of protein N of SARS-CoV Urbani of PKDHIGTRNPNNNAA falls below 0.7? Thanks.
0.0

Threshold test, Binding of serum 62 to linear peptides of protein N of SARS-CoV Urbani < 0.7: KEGIVWVATEGALNT
1.0

Check if Binding of serum 62 to linear peptides of protein N of SARS-CoV Urbani falls below 0.7 for LLNKHIDAYKTFPPT .
1.0

Binding of serum 62 to linear peptides of protein N of SARS-CoV Urbani under 0.7? Item: SGPDDQIGYYRRATR
1.0

====

// values below are reported Binding of serum SARS-green to linear peptides of protein X4 of SARS-CoV Urbani
Test system: antibodies in sera from SARS patients (sera 1a, 1b, 2, 6, 37, 62, London, SARS-yellow, SARS-green)
Assay type: binding, human
// return a plain number; no unit text

Below, each entry is followed by its recorded Binding of serum SARS-green to linear peptides of protein X4 of SARS-CoV Urbani result.
CADGTRHTYQLRARS 0.6
TYQLRARSVSPKLFI 0.7
HTYQLRARSVSPKLF 0.7

For the sequence THFAFACADGTRHTY , what Binding of serum SARS-green to linear peptides of protein X4 of SARS-CoV Urbani is on record?
0.5

Report Binding of serum SARS-green to linear peptides of protein X4 of SARS-CoV Urbani for NKFALTCTSTHFAFA please.
0.4

Which value of Binding of serum SARS-green to linear peptides of protein X4 of SARS-CoV Urbani has been reported for TLIVFTSCELYHYQE in the records?
1.1

# lookup: Binding of serum SARS-green to linear peptides of protein X4 of SARS-CoV Urbani of QLRARSVSPKLFIRQ
0.6

Any idea what Binding of serum SARS-green to linear peptides of protein X4 of SARS-CoV Urbani was measured for LFLIVAALVFLILCF ?
0.6

Requested read-out: Binding of serum SARS-green to linear peptides of protein X4 of SARS-CoV Urbani. Entry: LIVFTSCELYHYQEC
1.1

Binding of serum SARS-green to linear peptides of protein X4 of SARS-CoV Urbani for IRQEEVQQELYSPLF ?
0.8

// returns reported Binding of serum SARS-green to linear peptides of protein X4 of SARS-CoV Urbani for input FALTCTSTHFAFACA
0.5

Query (sequence): YQLRARSVSPKLFIR ; field requested: Binding of serum SARS-green to linear peptides of protein X4 of SARS-CoV Urbani
0.7

====

System: control sera (pooled serum of ten healthy LUMC hospital workers; commercial negative donor pooled serum from the Dutch bloodbank)
Type: binding, human
Set-up: unit not given here
measured-property: Binding of Control serum LUMC to looped peptides
Provide a numeric answer; units are not to be included.

// solved cases for Binding of Control serum LUMC to looped peptides follow
RARSVSPKLFIRQEE 0.8
MCKYTQSTALQELLI 0.7
CRIIMRCWLCWKCKS 0.7
YHYQECVRGTTVLLK 0.8
KRWQLALYKGFQFIC 0.7
HKKVSTNLCTHSFRK 0.8

From here, focus on the item given below.
Entry under review: GSITAQPVKIDNASP . Reported Binding of Control serum LUMC to looped peptides?
0.5
